Source listed as patent US20230227537A1.

# measured-on: SARS-CoV-2 RBD protein Avi-tag biotinylated (AcroBiosystems SPD-C82E9) (SARS-CoV-2, UniProt P0DTC2 330-518)
We begin with a simple list: items and their reported IC50.
Report the figure in nM without appending any unit label.

Please review the following examples before continuing.
{"binder": "VHH3.29 (VHH) VHH: QVQLQESGGGLVQAGGSLRLSCVASGRTFSSGGMGWFRQAPGQEREFVAGIGWAGLSSYYLDSVKGRFTISLDNAKNTVYLQMNMLKPEDTGVYYCAADDHGWSAAGMDYLGQGTQVTVSS", "IC50 [nM]": 0.389}
{"binder": "VHH3.77 (VHH) VHH: QVQLQESGGGLVQAGGSLRLSCVSSGRAFGNGAVGWFRQGPGRPREFVATVSWNGGGTYFAESVRGRFTISRDNAKNTVYLQMNNLKPEDTAVYYCALAGEGTVVSEWDYDYEYWGQGTQVTVSS", "IC50 [nM]": 0.237}
{"binder": "VHH3.55 (VHH) VHH: QVQLQESGGGLVQAGGSLRLSCEVSGRTNDNYGVGWFRQVPGAERELVAAIRWSSISRYYKDSVKGRFTISRDNAKNTVYLQMDMLKPEDTAAYYCAADPAGWSEFGMEYWGKGTQVTVSS", "IC50 [nM]": 0.322}

Consider the additional binder presented here.
Which IC50 reading was recorded for the binder VHH3.149 (VHH) VHH: QVQLQESGGGLVQAGGSLKLSCAASGRTFSSYALGWFRQAPGTEREFVSAINWFGAPTYYADSVKGRFTISRDNAKNTVYLQMDNLKPEDTAVYYCAADSKGWDPQDMDYWGKGTQVTVSS ?
0.334
